Target Desc: T1, HLA-A*02:01 (peptide-receptive MHC class I molecule, heavy chain with β2m light chain) (human)
T1 construct: The UV-sensitive placeholder peptide is cleaved on irradiation and exchanged for the tested peptide
Protocol Text: UV-ligand exchange, anti-β2m ELISA; grade of peptide exchange yield (≥10% = +; ≥20% = ++; ≥50 = +++; ≥75% = ++++)
Square brackets hold non-standard residues; d marks the D form. Ends that are not written are not given here. pT = C[C@@H](OP(=O)(O)O)[C@H](N)C(=O)O
Test Readout: peptide exchange yield

1) SLLTEPALV [peptide SLLTEPALV]; 50 to 75%
2) ALNPVIYTV [peptide ALNPVIYTV]; 20 to 50%
3) SLNDQGYLL [peptide SLNDQGYLL]; 50 to 75%
4) KAFPFYNTV [peptide KAFPFYNTV]; 20 to 50%
5) KLLDMELEM [peptide KLLDMELEM]; ≥ 75%
6) SLAEPRVSV [peptide SLAEPRVSV]; 50 to 75%

We now examine a further binder.
Find the measured peptide exchange yield of LLM[pT]VAGLKL [peptide LLMUVAGLKL] and report it.
≥ 75%
